- assayed-system: Polyunsaturated fatty acid 5-lipoxygenase (Rattus norvegicus)
- Sequence (whole entry): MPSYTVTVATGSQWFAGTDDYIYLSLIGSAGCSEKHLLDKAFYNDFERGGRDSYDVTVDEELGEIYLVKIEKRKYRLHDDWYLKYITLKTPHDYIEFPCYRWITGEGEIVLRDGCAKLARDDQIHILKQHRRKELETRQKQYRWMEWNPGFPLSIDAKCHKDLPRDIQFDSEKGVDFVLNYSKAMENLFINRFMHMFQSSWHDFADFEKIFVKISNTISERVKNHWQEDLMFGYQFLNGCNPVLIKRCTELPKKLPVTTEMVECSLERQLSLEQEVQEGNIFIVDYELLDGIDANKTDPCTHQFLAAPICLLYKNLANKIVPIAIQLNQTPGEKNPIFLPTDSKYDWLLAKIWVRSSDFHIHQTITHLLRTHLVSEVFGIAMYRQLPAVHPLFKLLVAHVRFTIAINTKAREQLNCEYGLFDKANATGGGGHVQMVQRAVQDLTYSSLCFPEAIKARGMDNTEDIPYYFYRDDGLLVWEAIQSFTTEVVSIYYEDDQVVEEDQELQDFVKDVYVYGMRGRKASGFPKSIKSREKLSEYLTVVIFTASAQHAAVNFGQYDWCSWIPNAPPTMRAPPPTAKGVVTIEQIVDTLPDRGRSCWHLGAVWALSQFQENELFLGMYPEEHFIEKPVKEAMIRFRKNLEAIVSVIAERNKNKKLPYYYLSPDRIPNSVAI
- details: at 5 µM
readout-type: inhibition (%)

Known results for compounds:
# smiles-text, inhibition (%)
rows = [
    ("O=C(CCc1cn(Cc2ccc(Cl)c(Cl)c2)c2ccccc12)N1CCOCC1", 38.5),
    ("O=C(CCCc1c[nH]c2ccccc12)N1CCOCC1", 62.3),
    ("COc1ccc2c(c1)c(CCCC(=O)N1CCOCC1)c(C)n2C(=O)c1ccc(Cl)cc1", 70.2),
    ("Cc1ccc(Cn2cc(CCCC(=O)N3CCOCC3)c3ccccc32)cc1", 33.9),
    ("O=C(CCc1cn(C(=O)c2ccccc2)c2ccccc12)N1CCOCC1", 23.4),
]

(P) COC1(c2cc(F)cc(OCCc3cn(Cc4ccccc4)c4ccccc34)c2)CCOCC1
(Q) CC(C)(C)OC(=O)N1CCN(C(=O)CCCc2c[nH]c3ccccc23)CC1
Exam item: Return label of the item with the larger inhibition. Candidates: P , Q . Please identify the chosen entry by its label.
Marked response: Q

(a) COc1ccc2c(c1)c(CCCC(=O)N1CCOCC1)c(C)n2Cc1ccc(C)cc1
(b) COc1ccc2c(c1)c(CCCC(=O)N1CCOCC1)c(C)n2Cc1ccccc1
(c) O=C(CCCc1cn(Cc2ccccc2)c2ccccc12)N1CCNCC1
Exam item: Write the entries in order, lowest recorded inhibition first. # answer = labels listed in requested order
Marked response: a, b, c
(a: 26.4%, b: 54.2%, c: 95.4%)

---

- assayed-system: Polyunsaturated fatty acid 5-lipoxygenase (Rattus norvegicus)
- details: at 5 µM
readout-type: inhibition (%)

Known results for compounds:
# compound, reading-unit, inhibition
measured = [
    ("COc1ccc2[nH]c(C)c(CCCC(=O)N3CCOCC3)c2c1", "%", 72.9),
    ("O=C(CCCc1cn(Cc2ccccc2)c2ccccc12)N1CCOCC1", "%", 25.8),
]

(A) O=C(CCCc1cn(Cc2ccc(Cl)c(Cl)c2)c2ccccc12)N1CCOCC1
(B) COc1ccc2c(c1)c(CCCC(=O)N1CCN(C(=O)OC(C)(C)C)CC1)c(C)n2Cc1ccccc1
Exam item: Return label of the item with the larger inhibition. Candidates: A , B . Please identify the chosen entry by its label.
Marked response: B

(A) CC(c1cc2ccccc2s1)N(O)C(N)=O (stereo unspecified)
(B) CC(C)(C)OC(=O)N1CCN(C(=O)CCCc2cn(Cc3ccccc3)c3ccccc23)CC1
Exam item: I would appreciate it if you could say which entry, A or B , has the lower inhibition value. Please identify the chosen entry by its label.
Marked response: B

---

- assayed-system: Polyunsaturated fatty acid 5-lipoxygenase (Rattus norvegicus) (UniProt P12527)
- details: at 5 µM
readout-type: inhibition (%)

Known results for molecules:
# smiles-text, inhibition, %
records = [
    ("O=C(CCc1cn(C(=O)c2ccc(Cl)cc2)c2ccccc12)N1CCOCC1", 26),
    ("Cc1ccc(Cn2cc(CC(=O)N3CCOCC3)c3ccccc32)cc1", 34.6),
    ("O=C(CCCc1cn(C(=O)c2ccccc2)c2ccccc12)N1CCOCC1", 58.2),
]

(a) c1ccc(Cn2cc(CCCCN3CCOCC3)c3ccccc32)cc1
(b) COC1(c2cc(F)cc(OCCc3c[nH]c4ccccc34)c2)CCOCC1
(c) O=C(Cc1cn(C(=O)c2ccccc2)c2ccccc12)N1CCOCC1
Exam item: Write the entries in order, lowest recorded inhibition first. # answer = labels listed in requested order
Marked response: c, a, b
(c: 21%, a: 41.6%, b: 64.2%)

---

- assayed-system: Polyunsaturated fatty acid 5-lipoxygenase (Rattus norvegicus)
- protocol: Inhibition of 5-LOX in rat peritoneal leukocytes
readout-type: IC50 (µM)

Known results for compounds:
# smiles-text, IC50 (µM)
records = [
    ("Cc1c(CCCC(=O)N2CCOCC2)c2cc(Cl)ccc2n1Cc1ccccc1", 0.95),
    ("O=C(Cc1cn(Cc2ccc(Cl)c(Cl)c2)c2ccccc12)N1CCOCC1", 0.87),
    ("Cc1[nH]c2ccc(Cl)cc2c1CCCC(=O)N1CCOCC1", 1.33),
    ("COc1ccc2c(c1)c(CCCC(=O)N1CCOCC1)c(C)n2C(=O)c1ccc(Cl)cc1", 2.25),
]

(P) O=C(CCCc1cn(Cc2ccccc2)c2ccccc12)N1CCNCC1
(Q) COc1ccc2[nH]c(C)c(CCCC(=O)N3CCOCC3)c2c1
Exam item: Return label of the item with the larger IC50. Candidates: P , Q . Please identify the chosen entry by its label.
Marked response: Q
(Q: 3.16 µM, P: 0.85 µM)

---

- assayed-system: Polyunsaturated fatty acid 5-lipoxygenase (Rattus norvegicus)
- Sequence (P12527 whole entry): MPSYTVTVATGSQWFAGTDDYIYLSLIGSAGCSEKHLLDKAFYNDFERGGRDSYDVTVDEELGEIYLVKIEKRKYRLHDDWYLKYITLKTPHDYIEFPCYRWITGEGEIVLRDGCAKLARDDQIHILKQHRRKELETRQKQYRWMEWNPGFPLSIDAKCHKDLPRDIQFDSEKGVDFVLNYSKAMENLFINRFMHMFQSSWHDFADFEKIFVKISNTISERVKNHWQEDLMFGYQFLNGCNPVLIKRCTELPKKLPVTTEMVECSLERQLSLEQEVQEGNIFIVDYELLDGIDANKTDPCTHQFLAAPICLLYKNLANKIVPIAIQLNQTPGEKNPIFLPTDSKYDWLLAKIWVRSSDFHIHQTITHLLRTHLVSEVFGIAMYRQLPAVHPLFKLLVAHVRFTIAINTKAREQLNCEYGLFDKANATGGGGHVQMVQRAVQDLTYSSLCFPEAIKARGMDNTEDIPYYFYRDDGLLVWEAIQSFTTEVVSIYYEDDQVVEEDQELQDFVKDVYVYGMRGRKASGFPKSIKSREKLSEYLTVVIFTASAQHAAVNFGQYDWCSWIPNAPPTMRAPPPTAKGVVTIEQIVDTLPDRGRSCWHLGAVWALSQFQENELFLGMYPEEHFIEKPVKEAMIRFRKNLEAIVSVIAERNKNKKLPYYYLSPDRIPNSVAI
- protocol: Inhibition of 5-LOX in rat peritoneal leukocytes
- Format: cell-based
pIC50: −log10 of the molar value.
readout-type: pIC50

Known results for compounds:
# smiles-text, result-value
measured = [
    ("O=C(CCCc1cn(Cc2ccccc2)c2ccccc12)N1CCOCC1", 4.13),
    ("O=C(CCCc1c[nH]c2ccccc12)N1CCOCC1", 5.69),
    ("O=C(CCc1cn(Cc2ccccc2)c2ccccc12)N1CCOCC1", 5.50),
]

(a) COC1(c2cc(F)cc(OCCc3c[nH]c4ccccc34)c2)CCOCC1
(b) CC(C)(C)OC(=O)N1CCN(C(=O)CCCc2c[nH]c3ccccc23)CC1
Exam item: I would appreciate it if you could say which entry, a or b , has the lower pIC50 value. Please identify the chosen entry by its label.
Marked response: a
